- Assay notes: Acid dissociation constant expressed as the negative logarithm of the equilibrium constant
Measured property: pKa
Enter the number alone.

QUERY: Give reported pKa value for "CN(C)CCCCNC(=O)c1cccc2nc3ccccc3nc12"
RESULT: 0.84

QUERY: Give reported pKa value for "CN(C)CCNC(=O)c1cccc2c(N)c3ccccc3nc12"
RESULT: 8.3

QUERY: Give reported pKa value for "CN(C)CCCCNC(=O)c1cccc2c(N)c3ccccc3nc12"
RESULT: 8.3

QUERY: Give reported pKa value for "CN(C)CCCCNC(=O)c1cccc2cc3ccccc3nc12"
RESULT: 3.54

QUERY: Give reported pKa value for "CN(C)CCNC(=O)c1cccc2c(-c3ccccc3)c3ccccc3nc12"
RESULT: 3.49

QUERY: Give reported pKa value for "CN(C)CCNC(=O)c1cccc2nc3ccccc3nc12"
RESULT: 0.84

QUERY: Give reported pKa value for "CN(C)CCNC(=O)c1cccc2nc3ccccc3cc12"
RESULT: 4.24

QUERY: Give reported pKa value for "Cc1c2ccccc2nc2c(C(=O)NCCN(C)C)cccc12"
RESULT: 4.34

QUERY: Give reported pKa value for "CN(C)CCNC(=O)c1cccc2cc3ccccc3nc12"
RESULT: 3.54

* * *

- Tested on: Nucleic Acid
- Assay notes: Binding constant to Poly (dA-dT) determined by ethidium bromide displacement
- Type: nucleic-acid assay
Measured property: Log K
Enter the number alone.

QUERY: Give reported Log K value for "CN(C)CCNC(=O)c1cccc2nc3ccccc3cc12"
RESULT: 6.04

QUERY: Give reported Log K value for "CN(C)CCNC(=O)c1cccc2c(=O)c3ccccc3oc12"
RESULT: 5.29

QUERY: Give reported Log K value for "CN(C)CCNC(=O)c1cccc2nc3ccccc3nc12"
RESULT: 5.74

QUERY: Give reported Log K value for "CN(C)CCNC(=O)c1cccc2c(-c3ccccc3)c3ccccc3nc12"
RESULT: 5.84

QUERY: Give reported Log K value for "CN(C)CCNC(=O)c1cccc2c(=O)c3ccccc3sc12"
RESULT: 5.51

QUERY: Give reported Log K value for "CN(C)CCNC(=O)c1cccc2cc3ccccc3cc12"
RESULT: 5.78

QUERY: Give reported Log K value for "CN(C)CCNC(=O)c1nccc2c1[nH]c1ccccc12"
RESULT: 5.34

QUERY: Give reported Log K value for "CN(C)CCCCNC(=O)c1cccc2c(N)c3ccccc3nc12"
RESULT: 7.49

* * *

For each entry below, report its Log K value.
- Tested on: Nucleic Acid
- Assay notes: Binding constant to Poly (dG-dC) determined by ethidium bromide displacement
- Type: nucleic-acid assay

QUERY: Report the value of Log K obtained on Nucleic Acid for "CN(C)CCNC(=O)c1cccc2c(=O)c3ccccc3sc12" .
RESULT: 5.18

QUERY: Report the value of Log K obtained on Nucleic Acid for "CN(C)CCNC(=O)c1cccc2cc3ccccc3cc12" .
RESULT: 5.25

QUERY: Report the value of Log K obtained on Nucleic Acid for "CN(C)CCNC(=O)c1cccc2nc3ccccc3cc12" .
RESULT: 6.43

QUERY: Report the value of Log K obtained on Nucleic Acid for "CN(C)CCNC(=O)c1cccc2c(=O)c3ccccc3oc12" .
RESULT: 5.05

QUERY: Report the value of Log K obtained on Nucleic Acid for "CN(C)CCNC(=O)c1cccc2c(-c3ccccc3)c3ccccc3nc12" .
RESULT: 5.98

QUERY: Report the value of Log K obtained on Nucleic Acid for "CN(C)CCNC(=O)c1cccc2nc3ccccc3nc12" .
RESULT: 6.04

QUERY: Report the value of Log K obtained on Nucleic Acid for "CN(C)CCCCNC(=O)c1cccc2c(N)c3ccccc3nc12" .
RESULT: 7.43

QUERY: Report the value of Log K obtained on Nucleic Acid for "CN(C)CCNC(=O)c1nccc2c1[nH]c1ccccc12" .
RESULT: 5.26
